DC50 by entry:
molecular target: Bromodomain-containing protein 9 (Human, UniProt Q9H8M2); test: SYO1 BRD9 NanoLuc Degradation Assay; conditions: read-out: IC50 (the source's name)

{"columns": ["MOLECULE", "DC50"],
 "data": [
  ["CNC(=O)N1CCc2c(-c3cc(OC)c(CN4CCN(CCC5CCN(c6ccc7c(c6)C(=O)N(C6CCC(=O)NC6=O)C7=O)CC5)C(C)(C)C4)c(OC)c3)cn(C)c(=O)c2C1 (stereo not drawn)", "< 10 nM"],
  ["CNC(=O)N1CCc2c(-c3cc(OC)c(CN4CCN(C5CN(c6ccc7c(c6)C(=O)N(C6CCC(=O)NC6=O)C7=O)C5)CC4)c(OC)c3)cn(C)c(=O)c2C1 (stereo not drawn)", "< 10 nM"]
]}

As a next step, examine the molecule that follows.
### Prompt Lab request: please report DC50 under test system Bromodomain-containing protein 9 (Human, UniProt Q9H8M2) for COc1cc(-c2cn(C)c(=O)c3c2CCN(C(=O)NC2CCC24CCN(CCOc2ccc5c(c2)C(=O)N(C2CCC(=O)NC2=O)C5=O)CC4)C3)cc(OC)c1CN(C)C (stereo not drawn)
### Response > 10 nM

---

DC50 by entry:
Target: Bromodomain-containing protein 9 (Human, UniProt Q9H8M2)
Sequence (Q9H8M2 whole entry): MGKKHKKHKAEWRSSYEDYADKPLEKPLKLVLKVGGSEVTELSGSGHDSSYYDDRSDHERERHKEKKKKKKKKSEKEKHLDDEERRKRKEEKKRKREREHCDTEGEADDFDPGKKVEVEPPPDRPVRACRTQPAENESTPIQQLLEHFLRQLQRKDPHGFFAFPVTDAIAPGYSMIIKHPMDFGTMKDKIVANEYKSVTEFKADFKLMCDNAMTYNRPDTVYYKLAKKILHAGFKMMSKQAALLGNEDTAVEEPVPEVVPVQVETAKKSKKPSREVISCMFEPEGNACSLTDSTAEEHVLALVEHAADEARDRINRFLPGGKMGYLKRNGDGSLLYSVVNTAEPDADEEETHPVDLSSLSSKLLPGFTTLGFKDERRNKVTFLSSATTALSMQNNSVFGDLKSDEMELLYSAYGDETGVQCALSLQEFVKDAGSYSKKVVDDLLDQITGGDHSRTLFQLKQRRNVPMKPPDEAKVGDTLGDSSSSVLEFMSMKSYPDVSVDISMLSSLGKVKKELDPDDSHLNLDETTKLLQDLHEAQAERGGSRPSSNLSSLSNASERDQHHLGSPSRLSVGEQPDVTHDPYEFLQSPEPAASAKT
Assay: SYO1 BRD9 NanoLuc Degradation Assay
Settings: read-out: IC50 (the source's name)

Below, 2 molecules whose answers are already recorded.
{"columns": ["MOLECULE", "VALUE REPORTED"],
 "data": [
  ["CNC(=O)N1CCc2c(-c3cc(OC)c(CN4CCC5C4CN5c4ccc5c(c4)C(=O)N(C4CCC(=O)NC4=O)C5=O)c(OC)c3)cn(C)c(=O)c2C1 (stereo not drawn)", "< 10 nM"],
  ["CNC(=O)N1CCc2c(-c3cc(OC)c(CN4CCC5(CC4)CN(c4ccc6c(c4)C(=O)N(C4CCC(=O)NC4=O)C6=O)C5)c(OC)c3)cn(C)c(=O)c2C1 (stereo not drawn)", "< 10 nM"]
]}

### Prompt Which measured DC50 value corresponds to CNC(=O)N1CCc2c(-c3cc(OC)c(CN4CCC5(CCN(c6ccc7c(c6)C(=O)N(C6CCC(=O)NC6=O)C7=O)C5)C4)c(OC)c3)cn(C)c(=O)c2C1 (stereo not drawn) ?
### Response < 10 nM

Every entry's value here was drawn from BindingDB's records for patent US12384776.
